List of growth values.
Tested on: HOP-62 NSCLC
PROTOCOL NOTES: NCI-60 one-dose screen, 48 h (100 = growth as untreated, 0 = no growth, -100 = all killed)
ASSAY CONDITIONS: 10 µM unless noted
This is part of a sample that, as a whole, favours compounds with a hit. Of some 83,000 tested, about 20% had one in any assay. Calls of active or inactive are those of the source. Rule for the calls: active = growth percent below 10; inactive = the rest.
QUANTITY MEASURED: growth

INSERT INTO results (molecule, assay_result) VALUES
  ('C=C(C)[C@H]1CC/C(C)=C/CC[C@]2(C)O[C@H]2CC/C(COC(C)=O)=C\C1=O', '102% (inactive)'),
  ('Cn1cc(-c2csc(-c3cn(C)c4ncccc34)n2)c2cc(F)cnc21', '99.1% (inactive)'),
  ('Cc1cc(NC(=O)Nc2cc(Cl)ccc2C)no1', '96.2% (inactive)'),
  ('CCCCCCOc1ccc(/C=N/NC(N)=S)cc1', '100% (inactive)'),
  ('CC(C)(C)c1ccc(C(O)CCCN2CCC(C(O)(c3ccccc3)c3ccccc3)CC2)cc1 (stereo not given)', '-79.5% (active)'),
  ('COc1ccc(Nc2ccnc(NCCCNc3ccnc4cc(Cl)ccc34)n2)cc1', '46.9% (inactive)'),
  ('COc1ccc(-c2cc(C(=O)Nc3nc4cc(C)c(C)cc4s3)nc3cc(-c4ccccc4)nn23)cc1OC', '100% (inactive)'),
  ('CCC(CC)NCCCCCNc1cc(OC)cc2cccnc12', '84.6% (inactive)'),
  ('O=C1NCN(CCO)CN1', '85.1% (inactive)'),
  ('O=C1Cc2cc(CCN3CCN(CCOCCO)CC3)c(Cl)cc2N1Cc1ccc(-c2ccccc2-c2nn[nH]n2)cc1', '91.6% (inactive)');
